Readings of variant/HC_K99L for the listed binders
experimental-target: T1, human tissue factor pathway inhibitor (TFPI) (human, UniProt P10646 29-304, limits assumed)
T1 construct: bought; also called hTFPI; human TFPI
T1 sequence (looked up): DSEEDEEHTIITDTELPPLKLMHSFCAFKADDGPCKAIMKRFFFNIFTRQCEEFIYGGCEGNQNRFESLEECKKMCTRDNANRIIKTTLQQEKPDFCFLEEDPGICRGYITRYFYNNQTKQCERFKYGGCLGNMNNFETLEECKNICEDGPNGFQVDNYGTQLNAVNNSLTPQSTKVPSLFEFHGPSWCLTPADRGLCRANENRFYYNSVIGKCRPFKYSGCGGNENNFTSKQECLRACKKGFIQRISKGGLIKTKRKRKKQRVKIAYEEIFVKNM
measurement-description: competitive ELISA

{"binder": "2A8 HC S35D+S55G+K99L/LC Y48F+D91L+V96W (Fab, V domains shown) VH: QVQLVESGGGLVQPGGSLRLSCAASGFTFRSYGMDWVRQAPGKGLEWVSSIRGSGSSTYYADSVKGRFTISRDNSKNTLYLQMNSLRAEDTAVYYCARLYRYWFDYWGQGTLVTVSS VL: DIELTQPPSVSVAPGQTARISCSGDNLRNYYAHWYQQKPGQAPVVVIFYDNNRPSGIPERFSGSNSGNTATLTISGTQAEDEADYYCQSWLDGVPWFGGGTKLTVLG", "variant/HC_K99L, ratio": 18.1}
{"binder": "2A8 HC S31V+I51D+R52S+S55R+K99V/LC Y48F+D91L+V96W (Fab, V domains shown) VH: QVQLVESGGGLVQPGGSLRLSCAASGFTFRVYGMSWVRQAPGKGLEWVSSDSGSRSSTYYADSVKGRFTISRDNSKNTLYLQMNSLRAEDTAVYYCARVYRYWFDYWGQGTLVTVSS VL: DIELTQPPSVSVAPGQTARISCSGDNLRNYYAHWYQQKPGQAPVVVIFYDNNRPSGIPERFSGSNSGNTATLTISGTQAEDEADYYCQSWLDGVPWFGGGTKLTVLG", "variant/HC_K99L, ratio": 11.7}
{"binder": "2A8 HC M34I+S35D+S55R+K99L/LC Y48F+N51V+D91W (Fab, V domains shown) VH: QVQLVESGGGLVQPGGSLRLSCAASGFTFRSYGIDWVRQAPGKGLEWVSSIRGSRSSTYYADSVKGRFTISRDNSKNTLYLQMNSLRAEDTAVYYCARLYRYWFDYWGQGTLVTVSS VL: DIELTQPPSVSVAPGQTARISCSGDNLRNYYAHWYQQKPGQAPVVVIFYDVNRPSGIPERFSGSNSGNTATLTISGTQAEDEADYYCQSWWDGVPVFGGGTKLTVLG", "variant/HC_K99L, ratio": 19.6}
